experiment: thallium flux activation in parental CHO cells, counter-screen for KCNQ1 potentiator project (AID 493006); details: parental CHO-K1 cells, FluxOR thallium flux, at 10 µM;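 for activation: fluorescence ratio of max minus min over baseline after K+ and Tl+ depolarization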
Activity calls are given as the source filed them.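 Rule for the calls: active = duplicate-averaged activation above buffer control mean plus 5 SD of those controls; inactive = the rest.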
Entry note: the call must match one of active, inactive

compound: O=c1c2cc(Cl)cc(Cl)c2nc2n1CCC2
labelClass: inactive

compound: CC(C)n1c(=S)[nH]c2scc(-c3cccs3)c2c1=O
labelClass: active

compound: O=C(NC(=S)Nc1ccc(C(F)(F)F)cc1)c1csnn1
labelClass: active

compound: COc1ccc(-n2c(=S)[nH]c3c(oc4ccccc43)c2=O)cc1
labelClass: inactive

compound: O=C1C(Nc2ccc(O)cc2)=C/C(=N/S(=O)(=O)c2cccs2)c2ccccc21
labelClass: inactive

Query: // outcome(item) with item = CCCCc1ccc(-c2csc(/C(C#N)=C/c3ccco3)n2)cc1
Result: inactive

Query: // outcome(item) with item = CC(C)N(Cc1ccccc1)C(=S)NC(=O)C1(C)CC1(Cl)Cl (stereo not drawn)
Result: active

Query: // outcome(item) with item = CCOC(=O)c1sc2ncnc(NCC(c3cccs3)N(C)C)c2c1C (stereo not drawn)
Result: active

Query: // outcome(item) with item = O=C1C(C2=C(O)c3ccccc3C2=O)=Nc2ccccc21
Result: active

Query: // outcome(item) with item = CCCCn1c(SCC(=O)/C(C#N)=C(\C)N)nc2ccccc2c1=O
Result: inactive
